Each record here notes measured thermal stability score.
system: HeLa Kyoto; assay: thermal stability score vs G1/S (z-score of summed log2 fold changes over temperatures); higher = more thermally stable than in G1/S; conditions: cell cycle stage: mitosis
Hey, just send me the number, nothing else.

Please review the following examples before continuing.
Polymer sequence	Property label	Value measured
MAAAEEGCSVGAEADRELEELLESALDDFDKAKPSPAPPSTTTAPDASGPQKRSPGDTAKDALFASQEKFFQELFDSELASQATAEFEKAMKELAEEEPHLVEQFQKLSEAAGRVGSDMTSQQEFTSCLKETLSGLAKNATDLQNSSMSEEELTKAMEGLGMDEGDGEGNILPIMQSIMQNLLSKDVLYPSLKEITEKYPEWLQSHRESLPPEQFEKYQEQHSVMCKICEQFEAETPTDSETTQKARFEMVLDLMQQLQDLGHPPKELAGEMPPGLNFDLDALNLSGPPGASGEQCLIM [G3V3G9|DCAF8]	thermal stability score	-1
MSPARRCRGMRAAVAASVGLSEGPAGSRSGRLFRPPSPAPAAPGARLLRLPGSGAVQAASPERAGWTEALRAAVAELRAGAVVAVPTDTLYGLACAASCSAALRAVYRLKGRSEAKPLAVCLGRVADVYRYCRVRVPEGLLKDLLPGPVTLVMERSEELNKDLNPFTPLVGIRIPDHAFMQDLAQMFEGPLALTSANLSSQASSLNVEEFQDLWPQLSLVIDGGQIGDGQSPECRLGSTVVDLSVPGKFGIIRPGCALESTTAILQQKYGLLPSHASYL [YRDC]	thermal stability score	0.668

For the sequence MKLLTHNLLSSHVRGVGSRGFPLRLQATEVRICPVEFNPNFVARMIPKVEWSAFLEAADNLRLIQVPKGPVEGYEENEEFLRTMHHLLLEVEVIEGTLQCPESGRMFPISRGIPNMLLSEEETES [TRMT112] , what thermal stability score is on record?
-1.02

----------
system: HeLa Kyoto; assay: melting temperature (median over replicates), in situ; higher = more thermally stable; conditions: cell cycle stage: G1/S
Property label: melting temperature (°C)
Quick reminder: number only, in °C, skip the unit.

Please review the following examples before continuing.
Polymer sequence	Property label	Value measured
MAAERQEALREFVAVTGAEEDRARFFLESAGWDLQIALASFYEDGGDEDIVTISQATPSSVSRGTAPSDNRVTSFRDLIHDQDEDEEEEEGQRFYAGGSERSGQQIVGPPRKKSPNELVDDLFKGAKEHGAVAVERVTKSPGETSKPRPFAGGGYRLGAAPEEESAYVAGEKRQHSSQDVHVVLKLWKSGFSLDNGELRSYQDPSNAQFLESIRRGEVPAELRRLAHGGQVNLDMEDHRDEDFVKPKGAFKAFTGEGQKLGSTAPQVLSTSSPAQQAENEAKASSSILIDESEPTTNIQIRLADGGRLVQKFNHSHRISDIRLFIVDARPAMAATSFILMTTFPNKELADESQTLKEANLLNAVIVQRLT [NSFL1C]	melting temperature	51.7
MAKVSELYDVTWEEMRDKMRKWREENSRNSEQIVEVGEELINEYASKLGDDIWIIYEQVMIAALDYGRDDLALFCLQELRRQFPGSHRVKRLTGMRFEAMERYDDAIQLYDRILQEDPTNTAARKRKIAIRKAQGKNVEAIRELNEYLEQFVGDQEAWHELAELYINEHDYAKAAFCLEELMMTNPHNHLYCQQYAEVKYTQGGLENLELSRKYFAQALKLNNRNMRALFGLYMSASHIASNPKASAKTKKDNMKYASWAASQINRAYQFAGRSKKETKYSLKAVEDMLETLQITQS [EMC2]	melting temperature	53.8
MAAYKLVLIRHGESAWNLENRFSGWYDADLSPAGHEEAKRGGQALRDAGYEFDICFTSVQKRAIRTLWTVLDAIDQMWLPVVRTWRLNERHYGGLTGLNKAETAAKHGEAQVKIWRRSYDVPPPPMEPDHPFYSNISKDRRYADLTEDQLPSCESLKDTIARALPFWNEEIVPQIKEGKRVLIAAHGNSLRGIVKHLEGLSEEAIMELNLPTGIPIVYELDKNLKPIKPMQFLGDEETVRKAMEAVAAQGKAKK [PGAM1]	melting temperature	55.7
MKSNPAIQAAIDLTAGAAGGTACVLTGQPFDTMKVKMQTFPDLYRGLTDCCLKTYSQVGFRGFYKGTSPALIANIAENSVLFMCYGFCQQVVRKVAGLDKQAKLSDLQNAAAGSFASAFAALVLCPTELVKCRLQTMYEMETSGKIAKSQNTVWSVIKSILRKDGPLGFYHGLSSTLLREVPGYFFFFGGYELSRSFFASGRSKDELGPVPLMLSGGVGGICLWLAVYPVDCIKSRIQVLSMSGKQAGFIRTFINVVKNEGITALYSGLKPTMIRAFPANGALFLAYEYSRKLMMNQLEAY [SLC25A15]	melting temperature	58

For the sequence MYPESTTGSPARLSLRQTGSPGMIYSTRYGSPKRQLQFYRNLGKSGLRVSCLGLGTWVTFGGQITDEMAEQLMTLAYDNGINLFDTAEVYAAGKAEVVLGNIIKKKGWRRSSLVITTKIFWGGKAETERGLSRKHIIEGLKASLERLQLEYVDVVFANRPDPNTPMEETVRAMTHVINQGMAMYWGTSRWSSMEIMEAYSVARQFNLTPPICEQAEYHMFQREKVEVQLPELFHKIGVGAMTWSPLACGIVSGKYDSGIPPYSRASLKGYQWLKDKILSEEGRRQQAKLKELQAIAERLGCTLPQLAIAWCLRNEGVSSVLLGASNADQLMENIGAIQVLPKLSSSIIHEIDSILGNKPYSKKDYRS [KCNAB2] , what melting temperature is on record?
60.3

For the sequence MGVTCVSQMPVAEGKSVQQTVELLTRKLEMLGAEKQGTFCVDCETYHTAASTLGSQGQTGKLMYVMHNSEYPLSCFALFENGPCLIADTNFDVLMVKLKGFFQSAKASKIETRGTRYQYCDFLVKVGTVTMGPSARGISVEVEYGPCVVASDCWSLLLEFLQSFLGSHTPGAPAVFGNRHDAVYGPADTMVQYMELFNKIRKQQQVPVAGIR [MED20] , what melting temperature is on record?
51.7

For the sequence MFVELNNLLNTTPDRAEQGKLTLLCDAKTDGSFLVHHFLSFYLKANCKVCFVALIQSFSHYSIVGQKLGVSLTMARERGQLVFLEGLKSAVDVVFQAQKEPHPLQFLREANAGNLKPLFEFVREALKPVDSGEARWTYPVLLVDDLSVLLSLGMGAVAVLDFIHYCRATVCWELKGNMVVLVHDSGDAEDEENDILLNGLSHQSHLILRAEGLATGFCRDVHGQLRILWRRPSQPAVHRDQSFTYQYKIQDKSVSFFAKGMSPAVL [ELP6] , what melting temperature is on record?
55.1

For the sequence MPVVRKIFRRRRGDSESEEDEQDSEEVRLKLEETREVQNLRKRPNGVSAVALLVGEKVQEETTLVDDPFQMKTGGMVDMKKLKERGKDKISEEEDLHLGTSFSAETNRRDEDADMMKYIETELKKRKGIVEHEEQKVKPKNAEDCLYELPENIRVSSAKKTEEMLSNQMLSGIPEVDLGIDAKIKNIISTEDAKARLLAEQQNKKKDSETSFVPTNMAVNYVQHNRFYHEELNAPIRRNKEEPKARPLRVGDTEKPEPERSPPNRKRPANEKATDDYHYEKFKKMNRRY [C9ORF78] , what melting temperature is on record?
57.3

For the sequence MASLDRVKVLVLGDSGVGKSSLVHLLCQNQVLGNPSWTVGCSVDVRVHDYKEGTPEEKTYYIELWDVGGSVGSASSVKSTRAVFYNSVNGIIFVHDLTNKKSSQNLRRWSLEALNRDLVPTGVLVTNGDYDQEQFADNQIPLLVIGTKLDQIHETKRHEVLTRTAFLAEDFNPEEINLDCTNPRYLAAGSSNAVKLSRFFDKVIEKRYFLREGNQIPGFPDRKRFGAGTLKSLHYD [RABL3] , what melting temperature is on record?
52

For the sequence MADKEKKKKESILDLSKYIDKTIRVKFQGGREASGILKGFDPLLNLVLDGTIEYMRDPDDQYKLTEDTRQLGLVVCRGTSVVLICPQDGMEAIPNPFIQQQDA [LSM7] , what melting temperature is on record?
55.3

----------
Each record here notes measured thermal stability score.
system: HeLa Kyoto; assay: thermal stability score vs G1/S (z-score of summed log2 fold changes over temperatures); higher = more thermally stable than in G1/S; settings: cell cycle stage: early G1 (4.5 h after nocodazole release)

Please review the following examples before continuing.
Polymer sequence	Value measured
MAAARPSLGRVLPGSSVLFLCDMQEKFRHNIAYFPQIVSVAARMLKVARLLEVPVMLTEQYPQGLGPTVPELGTEGLRPLAKTCFSMVPALQQELDSRPQLRSVLLCGIEAQACILNTTLDLLDRGLQVHVVVDACSSRSQVDRLVALARMRQSGAFLSTSEGLILQLVGDAVHPQFKEIQKLIKEPAPDSGLLGLFQGQNSLLH [ISOC2]	1.82
MMEDDGQPRTLYVGNLSRDVTEVLILQLFSQIGPCKSCKMITEHTSNDPYCFVEFYEHRDAAAALAAMNGRKILGKEVKVNWATTPSSQKKDTSNHFHVFVGDLSPEITTEDIKSAFAPFGKISDARVVKDMATGKSKGYGFVSFYNKLDAENAIVHMGGQWLGGRQIRTNWATRKPPAPKSTQENNTKQLRFEDVVNQSSPKNCTVYCGGIASGLTDQLMRQTFSPFGQIMEIRVFPEKGYSFVRFSTHESAAHAIVSVNGTTIEGHVVKCYWGKESPDMTKNFQQVDYSQWGQWSQVYGNPQQYGQYMANGWQVPPYGVYGQPWNQQGFGVDQSPSAAWMGGFGAQPPQGQAPPPVIPPPNQAGYGMASYQTQ [TIAL1]	-1.16
MMKLKSNQTRTYDGDGYKKRAACLCFRSESEEEVLLVSSSRHPDRWIVPGGGMEPEEEPSVAAVREVCEEAGVKGTLGRLVGIFENQERKHRTYVYVLIVTEVLEDWEDSVNIGRKREWFKIEDAIKVLQYHKPVQASYFETLRQGYSANNGTPVVATTYSVSAQSSMSGIR [NUDT3]	-1.86
MAVDITLLFRASVKTVKTRNKALGVAVGGGVDGSRDELFRRSPRPKGDFSSRAREVISHIGKLRDFLLEHRKDYINAYSHTMSEYGRMTDTERDQIDQDAQIFMRTCSEAIQQLRTEAHKEIHSQQVKEHRTAVLDFIEDYLKRVCKLYSEQRAIRVKRVVDKKRLSKLEPEPNTKTRESTSSEKVSQSPSKDSEENPATEERPEKILAETQPELGTWGDGKGEDELSPEEIQMFEQENQRLIGEMNSLFDEVRQIEGRVVEISRLQEIFTEKVLQQEAEIDSIHQLVVGATENIKEGNEDIREAIKNNAGFRVWILFFLVMCSFSLLFLDWYDS [STX18]	0.0563

Note: attention shifts to another entry.
Give recorded thermal stability score with HeLa Kyoto for the following sequence: MVGVKPVGSDPDFQPELSGAGSRLAVVKFTMRGCGPCLRIAPAFSSMSNKYPQAVFLEVDVHQCQGTAATNNISATPTFLFFRNKVRIDQYQGADAVGLEEKIKQHLENDPGSNEDTDIPKGYMDLMPFINKAGCECLNESDEHGFDNCLRKDTTFLESDCDEQLLITVAFNQPVKLYSMKFQGPDNGQGPKYVKIFINLPRSMDFEEAERSEPTQALELTEDDIKEDGIVPLRYVKFQNVNSVTIFVQSNQGEEETTRISYFTFIGTPVQATNMNDFKRVVGKKGESH [TXNL1]
-0.465
